The reported measurements were obtained from ChEMBL document CHEMBL1201861.

# Test system: MEL-JUSO;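 further: growth inhibition of human MEL-JUSO cells, read out with a cell viability assay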
# ASSAY_PROCEDURE: cells
# Format: functional, cell-based, Homo sapiens
# CONDITION_NOTES: Homo sapiens, MEL-JUSO
# Description: SANGER: Inhibition of human MEL-JUSO cell growth in a cell viability assay.
PROPERTY_LABEL: IC50 (µM)
Lab book: enter the figure in µM, no units written.

Worked examples, 2 molecules total:
Report IC50, nothing else, for this molecule: CO[C@H]1C[C@@H]2CC[C@@H](C)[C@@](O)(O2)C(=O)C(=O)N2CCCC[C@H]2C(=O)O[C@H]([C@H](C)C[C@@H]2CC[C@@H](OC(=O)C(C)(CO)CO)[C@H](OC)C2)CC(=O)[C@H](C)/C=C(\C)[C@@H](O)[C@@H](OC)C(=O)[C@H](C)C[C@H](C)/C=C/C=C/C=C/1C [TEMSIROLIMUS] 0.0666

Report IC50, nothing else, for this molecule: COc1cccc2c1C(=O)c1c(O)c3c(c(O)c1C2=O)C[C@@](O)(C(=O)CO)C[C@@H]3O[C@H]1C[C@H](N)[C@H](O)[C@H](C)O1 [DOXORUBICIN] 0.0145

Turning now to a further molecule:
Report IC50, nothing else, for this molecule: CN(C)C(=N)NC(=N)N [METFORMIN] 16000

---

Each entry below carries its recorded pIC50.
# Test system: GDM-1;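 further: cell viability readout used to measure growth inhibition of human GDM-1 cells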
# ASSAY_PROCEDURE: cells
# Assay type: functional, cell-based, Homo sapiens
# CONDITION_NOTES: Homo sapiens, GDM-1
# Description: SANGER: Inhibition of human GDM-1 cell growth in a cell viability assay.
Counter-ions that a name gives are not always drawn.
Note: pIC50 values are expressed as the negative base-10 logarithm of concentration in M.

Worked examples, 2 compounds total:
Report pIC50, nothing else, for this compound: COC1=CC(c2cc3ccccc3[nH]2)=N/C1=C\c1[nH]c(C)cc1C [OBATOCLAX MESYLATE] 6.16

Report pIC50, nothing else, for this compound: N[C@@H](CSC(c1ccccc1)(c1ccccc1)c1ccccc1)C(=O)O 5.60

Turning now to a further compound:
Report pIC50, nothing else, for this compound: Cc1cc([N+](=O)[O-])ccc1NS(=O)(=O)c1cc(Cl)ccc1Cl 5.08

---

# Tested on: CAL-85-1
# ASSAY_PROCEDURE: cells
# Format: functional, cell-based, Homo sapiens
# CONDITION_NOTES: Homo sapiens, CAL-85-1
# Description: SANGER: Inhibition of human CAL-85-1 cell growth in a cell viability assay.
Each entry below carries its recorded IC50.

Provide CAL-85-1 IC50 reading for Oc1ccc2ccccc2c1SSc1c(O)ccc2ccccc12 . 7.37 µM

Provide CAL-85-1 IC50 reading for Nc1cccc2c1CN(C1CCC(=O)NC1=O)C2=O (stereo not drawn) [LENALIDOMIDE] . > 5 µM

Turning now to a further molecule:
Provide CAL-85-1 IC50 reading for Cc1cn(-c2cc(NC(=O)c3ccc(C)c(Nc4nccc(-c5cccnc5)n4)c3)cc(C(F)(F)F)c2)cn1 [NILOTINIB] . > 2 µM

---

# Test system: SBC-5;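 further: cell viability assay read-out, IC50 is the concentration that inhibits growth of the cells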
# ASSAY_PROCEDURE: cells
# Type: functional, cell-based, Homo sapiens
# CONDITION_NOTES: Homo sapiens, SBC-5
# Description: SANGER: Inhibition of human SBC-5 cell growth in a cell viability assay.
Where a name gives a salt, the structure may show the parent alone.
Each entry below carries its recorded IC50.

Worked examples, 3 molecules total:
Report IC50, nothing else, for this molecule: CC(C)c1ccccc1Cc1cc(C(=O)Nc2ccc(S(=O)(=O)c3ccccc3C(C)(C)C)cc2)c(O)c(O)c1O 147 nM

Report IC50, nothing else, for this molecule: O=C(O)c1ccc(-c2c[nH]c3ncc(-c4ccccc4)cc23)cc1C1CCCC1 14900 nM

Report IC50, nothing else, for this molecule: CC(C)CCN1c2nc(Nc3cc(F)c(O)c(F)c3)ncc2N(C)C(=O)C1C (centres undefined) > 5000 nM

New cases:
Report IC50, nothing else, for this molecule: N#Cc1c(O)c2c(-c3ccc(-c4ccccc4O)cc3)csc2[nH]c1=O > 1020 nM

Report IC50, nothing else, for this molecule: COC1=CC(c2cc3ccccc3[nH]2)=N/C1=C\c1[nH]c(C)cc1C [OBATOCLAX MESYLATE] 212 nM

Report IC50, nothing else, for this molecule: COc1cccc2c1C(=O)c1c(O)c3c(c(O)c1C2=O)C[C@@](O)(C(=O)CO)C[C@@H]3O[C@H]1C[C@H](N)[C@H](O)[C@H](C)O1 20.7 nM

Report IC50, nothing else, for this molecule: Cn1cnc2c(F)c(Nc3ccc(Br)cc3Cl)c(C(=O)NOCCO)cc21 > 4000 nM

Report IC50, nothing else, for this molecule: CS(=O)(=O)c1ccc(C(=O)Nc2ccc(Cl)c(-c3ccccn3)c2)c(Cl)c1 > 10000 nM

Report IC50, nothing else, for this molecule: C=C(c1ccc(C(=O)O)cc1)c1cc2c(cc1C)C(C)(C)CCC2(C)C > 8000 nM

---

# System: BT-474
# ASSAY_PROCEDURE: cells
# Format: functional, cell-based, Homo sapiens
# CONDITION_NOTES: bt-474
# Description: SANGER: Inhibition of human BT-474 cell growth in a cell viability assay.
PROPERTY_LABEL: pIC50
Note: pIC50 values are expressed as the negative base-10 logarithm of concentration in M.

Provide BT-474 pIC50 reading for BLEOMYCIN . 2.68

---

# System: MEG-01;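 further: growth inhibition of MEG-01 cells, read out by a cell viability assay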
# ASSAY_PROCEDURE: cells
# Assay type: functional, cell-based, Homo sapiens
# CONDITION_NOTES: Homo sapiens, MEG-01
# Description: SANGER: Inhibition of human MEG-01 cell growth in a cell viability assay.
PROPERTY_LABEL: pIC50
Note: pIC50 values are expressed as the negative base-10 logarithm of concentration in M.

Worked examples, 4 compounds total:
Provide MEG-01 pIC50 reading for N#Cc1c(O)c2c(-c3ccc(-c4ccccc4O)cc3)csc2[nH]c1=O . 6.57

Provide MEG-01 pIC50 reading for COc1cc2ncn(-c3cc(OCc4ccccc4C(F)(F)F)c(C(N)=O)s3)c2cc1OC [GW843682X] . 7.38

Provide MEG-01 pIC50 reading for CC(=O)O[C@H]1C(=O)[C@@]2(C)[C@H]([C@H](OC(=O)c3ccccc3)[C@]3(O)C[C@H](OC(=O)[C@H](O)[C@@H](NC(=O)c4ccccc4)c4ccccc4)C(C)=C1C3(C)C)[C@]1(OC(C)=O)CO[C@@H]1C[C@@H]2O . 7.53

Provide MEG-01 pIC50 reading for CC[C@H](CO)Nc1nc(NCc2ccccc2)c2ncn(C(C)C)c2n1 . 4.86

New cases:
Provide MEG-01 pIC50 reading for COc1cccc2c1C(=O)c1c(O)c3c(c(O)c1C2=O)C[C@@](O)(C(=O)CO)C[C@@H]3O[C@H]1C[C@H](N)[C@H](O)[C@H](C)O1 . 6.75

---

# Tested on: HCC1395
# ASSAY_PROCEDURE: cells
# Format: functional, cell-based, Homo sapiens
# CONDITION_NOTES: Homo sapiens, HCC1395
# Description: SANGER: Inhibition of human HCC1395 cell growth in a cell viability assay.
Structures can show the parent of a compound that is named as a salt.
PROPERTY_LABEL: IC50

Provide HCC1395 IC50 reading for COC1=CC(c2cc3ccccc3[nH]2)=N/C1=C\c1[nH]c(C)cc1C [OBATOCLAX MESYLATE] . 1.93 µM

Provide HCC1395 IC50 reading for Cc1cn(-c2cc(NC(=O)c3ccc(C)c(Nc4nccc(-c5cccnc5)n4)c3)cc(C(F)(F)F)c2)cn1 [NILOTINIB] . > 2 µM

Provide HCC1395 IC50 reading for CO[C@H]1C[C@@H]2CC[C@@H](C)[C@@](O)(O2)C(=O)C(=O)N2CCCC[C@H]2C(=O)O[C@H]([C@H](C)C[C@@H]2CC[C@@H](OC(=O)C(C)(CO)CO)[C@H](OC)C2)CC(=O)[C@H](C)/C=C(\C)[C@@H](O)[C@@H](OC)C(=O)[C@H](C)C[C@H](C)/C=C/C=C/C=C/1C [TEMSIROLIMUS] . > 0.2 µM

Provide HCC1395 IC50 reading for CCN(CC)CCCCNc1ncc2cc(-c3cc(OC)cc(OC)c3)c(NC(=O)NC(C)(C)C)nc2n1 [PD-173074] . > 2 µM

Provide HCC1395 IC50 reading for CC(C)CCN1c2nc(Nc3cc(F)c(O)c(F)c3)ncc2N(C)C(=O)C1C (stereo unspecified) . > 5 µM

Turning now to a further compound:
Provide HCC1395 IC50 reading for N#Cc1c(O)c2c(-c3ccc(-c4ccccc4O)cc3)csc2[nH]c1=O . > 1.02 µM

---

Each entry below carries its recorded pIC50.
# Tested on: UO-31;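 further: cell viability assay measuring inhibition of cell growth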
# ASSAY_PROCEDURE: cells
# Type: functional, cell-based, Homo sapiens
# CONDITION_NOTES: Homo sapiens, UO-31
# Description: SANGER: Inhibition of human U031 cell growth in a cell viability assay.
pIC50: −log10 of the molar value.

Worked examples, 4 compounds total:
Report pIC50, nothing else, for this compound: CC1(C)CNc2cc(NC(=O)c3cccnc3NCc3ccncc3)ccc21 < 5.70

Report pIC50, nothing else, for this compound: COc1cc2c(Nc3ccc(NC(=O)c4ccccc4)cc3)ncnc2cc1OCCCN1CCOCC1 < 5.40

Report pIC50, nothing else, for this compound: CO[C@H]1C[C@@H]2CC[C@@H](C)[C@@](O)(O2)C(=O)C(=O)N2CCCC[C@H]2C(=O)O[C@H]([C@H](C)C[C@@H]2CC[C@@H](OC(=O)C(C)(CO)CO)[C@H](OC)C2)CC(=O)[C@H](C)/C=C(\C)[C@@H](O)[C@@H](OC)C(=O)[C@H](C)C[C@H](C)/C=C/C=C/C=C/1C < 6.70

Report pIC50, nothing else, for this compound: Cc1cn(-c2cc(NC(=O)c3ccc(C)c(Nc4nccc(-c5cccnc5)n4)c3)cc(C(F)(F)F)c2)cn1 < 5.70

New cases:
Report pIC50, nothing else, for this compound: C=C(c1ccc(C(=O)O)cc1)c1cc2c(cc1C)C(C)(C)CCC2(C)C < 5.10

Report pIC50, nothing else, for this compound: CS(=O)(=O)c1ccc(C(=O)Nc2ccc(Cl)c(-c3ccccn3)c2)c(Cl)c1 < 5.00

Report pIC50, nothing else, for this compound: Cc1cc([N+](=O)[O-])ccc1NS(=O)(=O)c1cc(Cl)ccc1Cl 5.06
